- Procedure Details: in vitro
- Experimental Parameters: human, Cytotoxicity [log(EC50 [μM]) ± SEM], cellular necrosis, SK-BR-3, 72 h exposure, 0.32–320 μM; values are logarithms
Measured Parameter: EC50 (µM)
Express it in µM; write the number only.

Compound	Observed Value
O=C(c1cc(Cc2n[nH]c(=O)c3ccccc23)ccc1F)N1CCN(C(=O)C2CC2)CC1 [Olaparib, reference compound]	0.0603
C=C(C[C@H](N)C(=O)O)C(=O)Nc1ccc(F)cc1	0.0603
C=C(C[C@H](N)C(=O)O)C(=O)NCc1ccc(F)cc1	0.389
CC/C(=C(\c1ccccc1)c1ccc(OCCN(C)C)cc1)c1ccccc1 [Tamoxifen, reference compound]	0.331
C=C(C[C@H](N)C(=O)O)C(N)=O [Compound 1, (S)-2-Amino-4-carbamoylpent-4-enoic acid]	2.04

Inquiry: // lookup EC50 for C=C(C[C@H](N)C(=O)O)C(=O)NCc1ccc([N+](=O)[O-])cc1
Reply text: 0.437

====

Entries annotated with measured EC50
- Procedure Details: in vitro
- Experimental Parameters: human, Cytotoxicity [log(EC50 [μM]) ± SEM], cellular necrosis, MCF-7, 72 h exposure, 0.32–320 μM; values are logarithms

Sample answers from the record:
Compound	Observed Value
C=C(C[C@H](N)C(=O)O)C(=O)N1CCCCC1 [Compound 8]	200 µM
C=C(C[C@H](N)C(=O)O)C(=O)NC1CC1 [Compound 7]	> 316 µM
C=C(C[C@H](N)C(=O)O)C(=O)Nc1ccc(Cl)cc1 [Compound 10]	93.3 µM
C=C(C[C@H](N)C(=O)O)C(=O)Nc1ccccc1 [Compound 3]	2.04 µM
C=C(C[C@H](N)C(=O)O)C(=O)NCc1ccc(F)cc1 [Compound 5]	55 µM
C=C(C[C@H](N)C(=O)O)C(=O)NCc1ccccc1 [Compound 4]	219 µM
C=C(C[C@H](N)C(=O)O)C(N)=O [Compound 1, (S)-2-Amino-4-carbamoylpent-4-enoic acid]	2.95 µM
C=C(C[C@H](N)C(=O)O)C(=O)Nc1ccc(F)cc1 [Compound 9]	2.29 µM
O=C(c1cc(Cc2n[nH]c(=O)c3ccccc23)ccc1F)N1CCN(C(=O)C2CC2)CC1 [Olaparib, reference compound]	26.3 µM

Could you now look at the following compound, please?
Inquiry: Consider the compound shown here: C=C(C[C@H](N)C(=O)O)C(=O)NCc1ccc([N+](=O)[O-])cc1 [Compound 6] What is its recorded EC50?
Reply text: 20.4 µM

====

- Procedure Details: in vitro
- Experimental Parameters: human, Cytotoxicity [log(EC50 [μM]) ± SEM], cellular necrosis, MDA-MB-231, 72 h exposure, 0.32–320 μM; values are logarithms
Measured Parameter: EC50

Worked examples follow.
Molecule	EC50
C=C(C[C@H](N)C(=O)O)C(=O)NCc1ccc(F)cc1	263 µM
C=C(C[C@H](N)C(=O)O)C(=O)NC1CC1	> 316 µM
C=C(C[C@H](N)C(=O)O)C(=O)NCc1ccc([N+](=O)[O-])cc1	269 µM

Inquiry: Item under review: C=C(C[C@H](N)C(=O)O)C(N)=O [Compound 1, (S)-2-Amino-4-carbamoylpent-4-enoic acid] . Reported EC50?
Reply text: > 316 µM

====

- System: benign MCF-10A breast cells
- Experimental Parameters: 72 h, tested 0.32–320 μM, p ≤ 0.05, Fig. 5D′
Measured Parameter: Concentrations that exerted significant toxicity compared to vehicle (µM)
// return numeric value only (unit: µM, not printed)

Here is how some compounds turned out for Concentrations that exerted significant toxicity compared to vehicle.
Compound	Observed Value
O=C(c1cc(Cc2n[nH]c(=O)c3ccccc23)ccc1F)N1CCN(C(=O)C2CC2)CC1 [Olaparib, reference compound]	320
C=C(C[C@H](N)C(=O)O)C(=O)Nc1ccc(Cl)cc1 [Compound 10]	100
C=C(C[C@H](N)C(=O)O)C(=O)NCc1ccc(F)cc1 [Compound 5]	320

Next:
Inquiry: Form field: reported Concentrations that exerted significant toxicity compared to vehicle of C=C(C[C@H](N)C(=O)O)C(N)=O [Compound 1, (S)-2-Amino-4-carbamoylpent-4-enoic acid]
Reply text: 3.2
